TGI for assorted molecules
system: T-47D breast; experiment: NCI tumour cell line growth inhibition, 48 h

So for Cc1cc(OP2(=O)NCc3ncccc3O2)ccc1Cl (stereo not drawn) , the logged TGI turned out to be > 100 µM

Others:
For reference, reported TGI for Cc1ccnc(NC(=S)Nc2ccc([N+](=O)[O-])cc2)c1 stands at > 100 µM

Entry COc1cc2c(cc1OCCCCCN1CCN(c3ncnc4ccccc34)CC1)N=CC1CCCN1C2=O (stereo not drawn) — recorded TGI = 0.0428 µM

====

tested on: SK-OV-3 ovarian; assay: NCI tumour cell line growth inhibition, 48 h
MEASURED PARAMETER: TGI

Form: molecule = NC(=O)c1cc(I)ccc1NC(=O)/C=C/c1ccccc1 ; TGI = 12.8 µM

Recorded TGI (molecule OC(C#CCN1CCCC1)(c1ccccc1)c1ccccc1Cl (stereo unspecified) ): > 100 µM

molecule FC(F)(F)c1ccc2nc(NCc3ccccc3)c(-c3ccccc3)nc2c1 , TGI observed: > 100 µM

More entries:
CCSc1nc(N=Cc2ccccc2O)c2cn[nH]c2n1 yielded TGI of > 100 µM

For this molecule ( CSc1nc2c(c(N(C)C)n1)C(O)n1c(nc3ccccc31)S2 (stereo unspecified) ), measured TGI is 43.6 µM

Lab note: CCc1n[nH]c(=O)n1-c1ccc2ccccc2c1 gave TGI of > 100 µM

Record O=c1cccc(C#CC#C[C@@H]2O[C@H]2CO)o1 , field TGI: 12.6 µM

The reported value for Cc1cc(C)nc(NS(=O)(=O)c2ccc(Nc3c4ccccc4nc4c(C(=O)N5CCN(CCO)CC5)cccc34)cc2)n1 in terms of TGI is > 100 µM

Please fill in: TGI reported for O=C1c2cccc3cccc(c23)C(=O)N1CCN(CCO)CCO = > 100 µM

// CCCCCCCCSC1=C(Cl)C(=O)C(OC)=C(OC)C1=O : TGI value = > 100 µM

Note to self: TGI recorded for COc1ccc(C(=O)NCCN(C)C)c2nc3ccccc3cc12 was 8.69 µM

====

TGI values, listed per item
system: LOX IMVI melanoma; experiment: NCI tumour cell line growth inhibition, 48 h

# TGI of Cc1cc(C[C@H]2O[C@@H]3OC(C)(C)O[C@@H]3[C@H]3OC(C)(C)O[C@H]32)c2ccccc2n1 = > 100 µM

molecule COC1OC2COC(c3ccccc3)OC2C(O)C1OC(=S)c1ccccc1 (stereo not drawn) , TGI observed: 21.4 µM

Now look at this one.
molecule O=[N+]([O-])c1ccccc1N=Nc1c(O)[nH]c2c(Cl)cc(Cl)cc12 , TGI observed: > 100 µM

====

test system: TK-10 renal; assay: NCI tumour cell line growth inhibition, 48 h
Where a SMILES comes first, the peptide text is derived from it. [ ]: non-standard residue; d: D form. The star is where a group is joined. Cbz = O=C(OCc1ccccc1)*; Aib = CC(C)(N)C(=O)O; OBn = c1ccc(CO*)cc1
MEASURED PARAMETER: TGI

The compound listed as COC1OC2COC(c3ccccc3)OC2C(O)C1OC(=S)c1ccccc1 (stereo not drawn) has a reported TGI of > 100 µM

The compound listed as CCCCCCCCSC1=C(Cl)C(=O)C(OC)=C(OC)C1=O has a reported TGI of 28.5 µM

TGI recorded for this compound, CN(C)Cc1cc(C(=O)/C=C/c2ccc([N+](=O)[O-])cc2)cc(CN(C)C)c1O , is 45.7 µM

// field: TGI; key: CC1(C)C=CC(=O)C(O)C(C)(C)C1=O (stereo not drawn) ; value = > 100 µM

What the record says about CC(NC(=O)C(C)(C)NC(=O)C(CC(=O)OCc1ccccc1)NC(=O)OCc1ccccc1)C(N)=O (stereo not drawn) (Cbz-Asp(OBn)-[Aib]-Ala-NH2; configuration not given here) : TGI is > 100 µM

For reference, reported TGI for O=[N+]([O-])c1cc2oc(CSc3ccccc3)nc2cc1Cl stands at > 100 µM

New cases:
TGI recorded for this compound, CN(C)CCN1CCC(Cc2ccccc2)CC1 , is > 80 µM

TGI recorded for this compound, CCN(CCNS(C)(=O)=O)c1ccc(N)c(C)c1 , is 7.73 µM

TGI for C=CC1(C)CC(=O)C2(O)C(C)(O1)C(OC(C)=O)C(O)C1C(C)(C)CCC(O)C12C (stereo not drawn) is > 34.6 µM

Short answer for C=C(CN(C)Cc1ccccc1)c1ccc(NC(=O)c2ccc(C(=C)CN(C)Cc3ccccc3)cc2)cc1 : TGI was > 100 µM

Lookup result for O=C1N(Cc2ccccc2)C2CSCC2N1Cc1ccccc1 (stereo not drawn) ; measured TGI: 85.9 µM

Record COc1ccc(-c2c(C#N)c(N3CCOCC3)nc3[nH]c(=S)[nH]c(=S)c23)cc1OC . Reported TGI: > 100 µM

So for CCCC(=O)OC[n+]1ccc2c(C)c3[nH]c4ccccc4c3c(C)c2c1 , the logged TGI turned out to be 5.5 µM

The value of TGI measured for the compound CCCCCCCCCCCC[N+]12CC[N+](CCN)(CC1)CC2 turned out to be 39.7 µM

For O=[N+]([O-])c1cccnc1N=Nc1c(O)[nH]c2ccccc12 the compound record lists TGI as 40.8 µM

====

tested on: NCI-H23 lung; assay: NCI tumour cell line growth inhibition, 48 h
Catalogue of compounds with associated TGI

The cases that follow already have their TGI on record.
TGI measured on Cc1ccc2c(c1)c1ccc3c(c1n2C)C(=O)C=CC3=O = 5.82 µM

response.value for N#Cc1sc2c(c1OC(=O)c1ccc(C(F)(F)F)cc1)c(=O)n(-c1ccccc1)c(=S)n2-c1ccccc1 (field: TGI) = > 100 µM

For reference, reported TGI for [N-]=[N+]=CC(=O)OC(CCl)CCl stands at > 100 µM

The recorded TGI for entry CC1OC(O[C@H]2C3C=CO[C@@H](OC4OC(CO)C(O)C(O)C4O)C3[C@@]3(COC(=O)/C=C/c4ccccc4)O[C@@H]23)C(O)C(O)C1O (stereo partly specified) equals > 100 µM

The recorded TGI for COc1ccc(/C=C\c2cc(OC)c(OC)c(OC)c2)cc1OCC(=O)O is 12.5 µM

Next:
Quick note, TGI for O=C1C/C(Br)=C\c2ccccc2-c2ccccc21 landed at 9.56 µM

For this compound ( O=C(O)c1ccc(CNCc2ccccc2)cc1 ), measured TGI is > 100 µM

So for CC(C)C1CN(C(=O)OCc2ccccc2)C2N1C(=O)C2(C)OCc1ccccc1 (stereo unspecified) , the logged TGI turned out to be > 100 µM

Noted for CCOC(=O)CC/C(=N/Nc1ccc(Cl)cc1[N+](=O)[O-])C(=O)OCC : its TGI reads > 100 µM

CCCCCCCCCCCC[N+]12CC[N+](CCN)(CC1)CC2 yielded TGI of > 100 µM

# TGI of CCOC(=O)/C(C(C)=O)=C(\OC(C)=O)c1ccncc1C(=O)O = > 100 µM

====

system: NCI/ADR-RES ovarian; experiment: NCI tumour cell line growth inhibition, 48 h
MEASURED PARAMETER: TGI (µM)
The response must be a number in µM with no trailing unit.

So for COc1cc(C2c3cc4c(cc3[C@@H](Nc3ccccc3)C3COC(=O)[C@H]23)OCO4)cc(OC)c1O (stereo not given in full) , the logged TGI turned out to be 45.2

# next compound below
TGI in this record for Cc1cc(N(C)C)c2ccccc2[n+]1CCCCCCCCCC[n+]1c(C)cc(N(C)C)c2ccccc21 : 43.9

====

The compounds listed here are annotated with their log10 TGI.
test system: MDA-MB-231 breast; assay: NCI tumour cell line growth inhibition, 48 h
Values are log10 of TGI in µM.

Per the records, this compound ( COc1ccc2c(=O)oc3c(OC)cc(CCN(C)C)c4c(=O)oc1c2c34 ) has log10 TGI equal to 1.21

Query O=c1cccc(C#CC#C[C@@H]2O[C@H]2CO)o1 yields log10 TGI of -0.06

New cases:
log10 TGI measured on COc1ccc(C(=O)NCCN(C)C)c2nc3ccccc3cc12 = 1.04

GET /value?item= NNc1ncnc2nc[nH]c12 &field=log10 TGI returns 1.50

Consider CC(C)N1CCN(c2ccc(OCC3COC(Cn4cncn4)(c4ccc(Cl)cc4Cl)O3)cc2)CC1 (stereo unspecified) . Its measured log10 TGI is 1.45

Recorded log10 TGI (compound Cc1nc2sccn2c1-c1nc2sccn2c1/C=C1/C(=O)Nc2ccccc21 ): 1.38

For Cc1cccc(NC2=C(Cl)C(=O)c3nc(C)ccc3C2=O)c1 the compound record lists log10 TGI as 0.38

GET /value?item= c1ccc(C(C(=Nc2ccc(Cc3ccc(N=C(C(c4ccccc4)c4ccccc4)N4CC4)cc3)cc2)N2CC2)c2ccccc2)cc1 &field=log10 TGI returns 1.47
